- measured_on: FGFR4 (h) (Homo sapiens, UniProt P22455)
- Sequence (P22455 22-802): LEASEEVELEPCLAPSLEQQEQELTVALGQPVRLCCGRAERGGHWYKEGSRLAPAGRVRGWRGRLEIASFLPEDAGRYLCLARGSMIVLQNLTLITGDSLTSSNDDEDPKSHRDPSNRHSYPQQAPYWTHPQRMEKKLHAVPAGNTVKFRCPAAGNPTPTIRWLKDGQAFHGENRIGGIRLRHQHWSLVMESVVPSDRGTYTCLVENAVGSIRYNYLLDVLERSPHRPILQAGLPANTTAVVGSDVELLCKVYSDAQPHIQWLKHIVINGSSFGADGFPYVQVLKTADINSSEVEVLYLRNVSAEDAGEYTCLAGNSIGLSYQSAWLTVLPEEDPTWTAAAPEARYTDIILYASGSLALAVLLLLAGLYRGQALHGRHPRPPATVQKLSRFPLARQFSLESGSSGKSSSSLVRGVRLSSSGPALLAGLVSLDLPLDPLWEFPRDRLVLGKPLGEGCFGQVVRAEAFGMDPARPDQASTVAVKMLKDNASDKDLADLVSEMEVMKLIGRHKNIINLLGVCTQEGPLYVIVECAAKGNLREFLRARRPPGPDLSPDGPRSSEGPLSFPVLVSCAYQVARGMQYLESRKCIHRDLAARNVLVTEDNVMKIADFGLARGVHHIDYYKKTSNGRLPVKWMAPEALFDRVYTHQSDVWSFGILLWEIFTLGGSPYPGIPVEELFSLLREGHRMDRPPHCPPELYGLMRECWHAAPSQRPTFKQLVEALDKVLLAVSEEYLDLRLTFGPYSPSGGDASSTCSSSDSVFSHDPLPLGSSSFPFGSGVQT
- test_description: FGFR4 (enzymatic assay), TR-FRET
- Assay type: biochemical
- details: FGFR 4 pIC50, enzymatic assay; average values if tested multiple times
Label True when IC50 is strictly below 5 nM; at or above that, label False.

molecule | measured_on | assigned_label
CNCCn1/c(=N/c2c(F)ccc(OC)c2Cl)ccc2ncc(-c3cnn(C)c3)nc21 | FGFR4 (h) (Homo sapiens, UniProt P22455) | False
COc1cc(OC)c(F)c(N(CC2CCC(=O)N2)c2ccc3ncc(-c4cnn(C)c4)nc3n2)c1 (stereo not shown) [Compound 52] | FGFR4 (h) (Homo sapiens, UniProt P22455) | True
COc1cc(OC)c(F)c(/N=c2\ccc3ncc(-c4cnn(C)c4)nc3n2CC2CCC(=O)N2)c1F (stereo not shown) [Compound 193] | FGFR4 (h) (Homo sapiens, UniProt P22455) | True
COc1cc(OC)c(F)c(N(Cc2cn(S(=O)(=O)N(C)C)cn2)c2ccc3ncc(-c4cnn(C)c4)nc3n2)c1 | FGFR4 (h) (Homo sapiens, UniProt P22455) | True
CNCCN(c1ccc2ncc(-c3cn[nH]c3)nc2n1)c1c(F)c(OC)cc(OC)c1F | FGFR4 (h) (Homo sapiens, UniProt P22455) | True
COc1cc(OC)c(F)c(N(CCCO)c2ccc3ncc(-c4cnn(C)c4)nc3n2)c1F (single isomer, unassigned) | FGFR4 (h) (Homo sapiens, UniProt P22455) | False
COc1cc(/N=c2\ccc3ncc(-c4cnn(C)c4)nc3n2CC2CCC(=O)N2)c(F)c(OC)c1 (stereo not shown) [Compound 45] | FGFR4 (h) (Homo sapiens, UniProt P22455) | True
